# target.system: hTDO2 (Homo sapiens)
# Construct: endogenous in cells
# test.summary: Cellular assay for TDO2 activity determination in A172 cells
# assay.setup: human glioblastoma A172 cells naturally expressing hTDO2; overnight incubation; kynurenine by absorbance at 480 nm
# Experimental: The compounds of formula I inhibit the activity of human TDO2 in cells that constitutively express TDO2, such as A172 cells. A172 is a cell line derived from human brain glioblastoma cells. […] The plates were then centrifuged 5 min at 1000 rpm, and 100 μL of the supernatant were collected in a conical plate, 30 μL of TCA 30% were added and a further centrifuged at 3000×g for 10 minutes. […] Kynurenine concentrations were determined by measuring the absorbance at 480 nm. […]
quantity: IC50 (nM)

Guide cases for IC50, answers given:
# compound, IC50 / nM
data = [
    ("O=S1(=O)c2ccc(-c3c[nH]c4cc(F)ccc34)cc2CN1C[C@@H](O)CO", 119),
    ("CNS(=O)(=O)CCN1C(C)c2cc(-c3c[nH]c4cc(F)ccc34)ccc2S1(=O)=O (single isomer, unassigned; (+)) [Example 60]", 133),
]

a = CC1c2cc(-c3c[nH]c4cc(F)ccc34)ccc2S(=O)(=O)N1CC1CCNCC1 (single isomer, unassigned; (-)) [Example 77]
b = CNC(=O)C(N)CN1C(C)c2cc(-c3c[nH]c4cc(F)ccc34)ccc2S1(=O)=O (single isomer, unassigned; (+)) [Example 104]
c = CC1c2cc(-c3c[nH]c4cc(F)ccc34)ccc2S(=O)(=O)N1C1CCNCC1 (single isomer, unassigned; (-)) [Example 51]
// query Ascending by IC50, please. Returns: the labels arranged in the requested order.
// result b, c, a
(b: 120 nM, c: 186 nM, a: 415 nM)

---

# target.system: hTDO2 (Homo sapiens, UniProt P48775)
# Construct: endogenous in cells
# Sequence (P48775 whole entry): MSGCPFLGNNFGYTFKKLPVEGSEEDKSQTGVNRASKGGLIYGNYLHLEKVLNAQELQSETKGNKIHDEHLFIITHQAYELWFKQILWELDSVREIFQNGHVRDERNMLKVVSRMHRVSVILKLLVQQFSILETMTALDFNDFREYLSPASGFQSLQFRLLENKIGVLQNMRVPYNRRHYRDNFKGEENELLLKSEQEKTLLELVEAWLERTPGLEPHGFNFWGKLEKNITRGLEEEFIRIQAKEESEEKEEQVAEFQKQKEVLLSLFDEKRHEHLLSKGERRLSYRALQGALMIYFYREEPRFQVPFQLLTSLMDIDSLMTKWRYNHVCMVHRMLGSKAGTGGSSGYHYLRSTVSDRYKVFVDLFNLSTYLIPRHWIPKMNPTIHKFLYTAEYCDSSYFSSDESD
# test.summary: Cellular assay for TDO2 activity determination in A172 cells
# assay.setup: human glioblastoma A172 cells naturally expressing hTDO2; overnight incubation; kynurenine by absorbance at 480 nm
pIC50: −log10 of the molar value.
quantity: pIC50

The cases that follow already have their pIC50 on record.
# compound, target.system, reported.measurement
records = [
    ("CC1c2cc(-c3c[nH]c4cc(F)ccc34)ccc2S(=O)(=O)N1CCN1CCOCC1 (single isomer, unassigned; (-)) [Example 117]", "hTDO2 (Homo sapiens, UniProt P48775)", 6.51),
    ("CNC(=O)C(C)N1C(C)c2cc(-c3c[nH]c4cc(F)ccc34)ccc2S1(=O)=O (single isomer, unassigned; (-)) [Example 145]", "hTDO2 (Homo sapiens, UniProt P48775)", 7.04),
    ("CNC(=O)CCN1C(C)c2cc(-c3c[nH]c4cc(F)ccc34)ccc2S1(=O)=O (single isomer, unassigned; (-)) [Example 46]", "hTDO2 (Homo sapiens, UniProt P48775)", 6.48),
    ("O=S1(=O)c2ccc(-c3c[nH]c4cc(F)ccc34)cc2CN1CCO", "hTDO2 (Homo sapiens, UniProt P48775)", 7.05),
    ("COC(=O)NCC1NS(=O)(=O)c2ccc(-c3c[nH]c4cc(F)ccc34)cc21 (single isomer, unassigned; (+)) [Example 22]", "hTDO2 (Homo sapiens, UniProt P48775)", 6.19),
]

P = O=S1(=O)c2ccc(-c3c[nH]c4cc(F)ccc34)cc2C(CO)N1CC(O)CO (single isomer, unassigned; (+)) [Example 144]
Q = O=S1(=O)c2ccc(-c3c[nH]c4cc(F)ccc34)cc2CN1[C@H]1CCOC1
// query Parameter metric = pIC50. Return the lower-valued option from P and Q . To answer, give the label that identifies your chosen option.
// result Q

A = O=S1(=O)c2ccc(-c3c[nH]c4cc(F)ccc34)cc2C(CO)N1CC(O)CO (single isomer, unassigned; (-)) [Example 143]
B = CC1c2cc(-c3c[nH]c4cc(F)ccc34)ccc2S(=O)(=O)N1CC[S+](C)[O-] (single isomer, unassigned; (-)) [Example 57]
C = CC1c2cc(-c3c[nH]c4cc(F)ccc34)ccc2S(=O)(=O)N1C1CNC1 (single isomer, unassigned; (+)) [Example 92]
D = O=S1(=O)c2ccc(-c3c[nH]c4cc(F)ccc34)cc2C(CO)N1CC(O)CO (single isomer, unassigned; (+)) [Example 141]
// query Ascending sort, pIC50. // list labels; follow requested order
// result D, A, B, C
(D: 6.08, A: 6.47, B: 7.21, C: 7.57)

a = CNC(=O)C(N)CN1C(C)c2cc(-c3c[nH]c4cc(F)ccc34)ccc2S1(=O)=O (single isomer, unassigned) [Example 101]
b = CC1c2cc(-c3c[nH]c4cc(F)ccc34)ccc2S(=O)(=O)N1CCS(N)(=O)=O (single isomer, unassigned; (-)) [Example 62]
c = CNC(=O)C(O)CN1C(C)c2cc(-c3c[nH]c4cc(F)ccc34)ccc2S1(=O)=O (single isomer, unassigned; (-)) [Example 100]
// query Sort entries by pIC50 from minimum to maximum value. Put the labels in the requested order and write them down.
// result a, b, c
